Provenance of the data: patent US20260116991A1

- measurement target: murine GPC3-his protein (Sino Biological, Cat. No. 50989-M08B) (murine) (UniProt Q8CFZ4)
- Sequence (Q8CFZ4 25-558 limits assumed): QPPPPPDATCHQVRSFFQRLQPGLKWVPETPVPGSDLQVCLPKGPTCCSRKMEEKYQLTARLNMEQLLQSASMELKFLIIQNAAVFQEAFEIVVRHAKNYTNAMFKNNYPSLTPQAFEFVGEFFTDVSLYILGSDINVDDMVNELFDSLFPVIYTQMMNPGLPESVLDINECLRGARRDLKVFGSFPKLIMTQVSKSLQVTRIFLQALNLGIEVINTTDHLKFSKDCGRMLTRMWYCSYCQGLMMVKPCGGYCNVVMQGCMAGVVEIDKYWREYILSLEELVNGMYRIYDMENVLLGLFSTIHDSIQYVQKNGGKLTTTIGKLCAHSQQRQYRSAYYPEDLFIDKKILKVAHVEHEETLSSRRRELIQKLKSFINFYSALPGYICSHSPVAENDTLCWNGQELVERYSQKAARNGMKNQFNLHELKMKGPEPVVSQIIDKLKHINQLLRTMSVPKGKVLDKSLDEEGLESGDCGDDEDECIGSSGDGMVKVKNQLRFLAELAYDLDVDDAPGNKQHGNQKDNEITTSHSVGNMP
- experimental protocol: ELISA, coated murine GPC3-His
measured metric: OD450 at 1 nM antibody (OD450 nm)
Numeric answer only, unit OD450 nm assumed.

Note down OD450 at 1 nM antibody recorded for F1.120.16 human-murine chimeric antibody (antibody, human IgG1, kappa, V domains shown) VH: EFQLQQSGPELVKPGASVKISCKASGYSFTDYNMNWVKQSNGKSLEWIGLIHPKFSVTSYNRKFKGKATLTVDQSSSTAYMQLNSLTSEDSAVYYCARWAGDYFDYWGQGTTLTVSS VL: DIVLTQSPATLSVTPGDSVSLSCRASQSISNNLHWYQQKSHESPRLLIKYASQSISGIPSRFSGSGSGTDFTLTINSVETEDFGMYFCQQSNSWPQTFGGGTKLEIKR
0.76
